// data source = PubChem BioAssay (NCI)

System: SF-539 CNS
testMethodNotes: NCI tumour cell line growth inhibition, 48 h
For each of the compounds below, state its TGI.
Give the quantity in µM, number only.

GET /value?item= Oc1ccccc1Nc1nc2ccccc2c2occc12 &field=TGI returns 22.1

GET /value?item= Cc1cc(O)ccc1O &field=TGI returns 29.6

GET /value?item= CCCC(=O)/C=C/S/C=C/C(=O)CCC &field=TGI returns 27

GET /value?item= COC(=O)c1cc2c3ccccc3n3c(=O)c4cc5cc(OC)c(N(S(=O)(=O)c6ccc(C)cc6)S(=O)(=O)c6ccc(C)cc6)cc5nc4c(n1)c23 &field=TGI returns 30.6

GET /value?item= O=c1[nH]cc(N(CCCl)CCCl)c(=O)[nH]1 &field=TGI returns 60.5

GET /value?item= COc1cc(/C=C/c2sc3ccccc3[n+]2C)ccc1N(C)C &field=TGI returns 31.6

GET /value?item= COc1ccc(Cn2cnc3cc(C(=O)Nc4cccc5ccccc45)ccc32)c(OC)c1 &field=TGI returns 0.147

GET /value?item= O=C1Nc2ccccc2/C1=C/c1cn(C(=O)c2c(Cl)cccc2Cl)c2ccccc12 &field=TGI returns 21.1

GET /value?item= CC1CC(C)/C(=N/NC(N)=O)C(C(O)CC2CCC(=O)NC2=O)C1 (configuration not stated) &field=TGI returns 39.8

GET /value?item= COC1=CC(=O)c2c(O)ccc(O)c2C1=O &field=TGI returns 10.4
